# assay-info: Vero cell-based cytotoxicity
# assay-conditions: African green monkey, Vero cells
readout-name: CC50 (µM)
Numbers only, in µM.

Indicate the recorded CC50 value for this molecule: O=[N+]([O-])c1ccc(/C=N/Nc2nc(Nc3ccccc3)nc(N3CCOCC3)n2)o1
3.9

* * *

# assay-info: Mouse liver microsomal stability
# Assay type: in vitro ADME
# assay-conditions: liver microsomes, pH 7.4
I'd appreciate it if you could supply half-life values for the items below.
One number for each entry, in h.

Indicate the recorded half-life value for this compound: O=[N+]([O-])c1ccc(/C=N/Nc2nc(Nc3ccccc3)nc(Nc3ccccc3)n2)o1
1.06

Indicate the recorded half-life value for this compound: CC1(Nc2nc(N/N=C/c3ccc([N+](=O)[O-])o3)nc(N3CCOCC3)n2)CC1
0.94

Shift focus to the following entry.
Indicate the recorded half-life value for this compound: O=[N+]([O-])c1ccc(/C=N/Nc2nc(N3CCOCC3)nc(N3CCOCC3)n2)o1
1.13
